From: paper PMC6514633

- Target System: T1, Core αB (cABC, residues 68–153) (human, UniProt P02511 68-153)
- T1 construct: αB-crystallin, human, α-crystallin core domain, residues 68-153; also called αB core; core of αB
- T1 sequence (looked up): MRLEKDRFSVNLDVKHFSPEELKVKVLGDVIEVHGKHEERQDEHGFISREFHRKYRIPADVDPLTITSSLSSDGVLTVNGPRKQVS
- Experimental Details: native MS; competition: core domain 10 μM mixed with an L-Ser and a D-Ser peptide (one with added glycines), 40 μM each (4:1 peptide/domain), 200 mM ammonium acetate pH 6.9; monomeric species, 5+, 6+, 7+ charge states quantified
- Condition: both partners purified
Readout: Kd (µM)

binder="ERAIPVSRE [Ct peptide ERAIPVSRE with L-Ser (canonical all L-amino acid form)]" readout=Kd unit_annotation=µM meas_value=115
